system: OVCAR-5; test: NCI tumour cell line growth inhibition, 48 h
Calls of active or inactive are those of the source. Rule as the data show it: active = GI50 up to about 1.1 µM and inactive = higher.
Assay Readout: GI50

INSERT INTO measurements (compound, observed) VALUES
  ('Cc1cn([C@@H]2C[C@@H]2CO)c(=O)[nH]c1=O', '> 100 µM (inactive)'),
  ('Cc1cc(C)c2c(c1)CC1(Cc3c(C)cc(C)cc3C1=O)C2=O (configuration not stated)', '> 100 µM (inactive)'),
  ('COc1ccccc1N1C(=O)CSC1c1cc(OC)c(OC)c(OC)c1 (configuration not stated)', '> 100 µM (inactive)'),
  ('COC(=O)C1(CCC(=O)N(C)c2ccccc2)NNC2C(=O)N(c3ccccc3)C(=O)C21 (configuration not stated)', '> 10 µM (inactive)'),
  ('CC(=O)NC1C(OCc2ccccc2)OC(CO)C(O)C1OCC(=O)NC(C)C(=O)NC(CCC(=O)Nc1ccc2c(c1)CN1C(=O)c3ccccc3C1=N2)C(N)=O (configuration not stated)', '> 100 µM (inactive)'),
  ('Cc1c(O)c(=O)ccn1CCO', '> 100 µM (inactive)'),
  ('CCN(CC)CCOCC1CCCN2CCCCC12 (configuration not stated)', '> 100 µM (inactive)'),
  ('COC(=O)/C=C/c1ccc2nncnc2c1.COC(=O)/C=C\c1ccc2nncnc2c1', '> 100 µM (inactive)'),
  ('CCN(CC)c1ccc(C2N3CCCCC3[C@@H]3c4[nH]c5ccccc5c4CCN23)cc1 (some centres not stated)', '51.3 µM (inactive)'),
  ('Cc1cc(C)nc(NS(=O)(=O)c2ccc(Nc3c4ccccc4nc4c(C(=O)N5CCN(CCO)CC5)cccc34)cc2)n1', '> 100 µM (inactive)'),
  ('Cc1ccc(C)n2c1nc1ccccc12', '> 100 µM (inactive)'),
  ('COC(=O)C(NC(=O)c1ccccc1)C(c1ccc(Cl)cc1)P(=O)(OC)OC (configuration not stated)', '> 100 µM (inactive)');
